Reported inhibition by item:
Molecular target: Cytochrome P450 2C9 (Homo sapiens) (UniProt P11712)
Sequence (P11712 whole entry, looked up): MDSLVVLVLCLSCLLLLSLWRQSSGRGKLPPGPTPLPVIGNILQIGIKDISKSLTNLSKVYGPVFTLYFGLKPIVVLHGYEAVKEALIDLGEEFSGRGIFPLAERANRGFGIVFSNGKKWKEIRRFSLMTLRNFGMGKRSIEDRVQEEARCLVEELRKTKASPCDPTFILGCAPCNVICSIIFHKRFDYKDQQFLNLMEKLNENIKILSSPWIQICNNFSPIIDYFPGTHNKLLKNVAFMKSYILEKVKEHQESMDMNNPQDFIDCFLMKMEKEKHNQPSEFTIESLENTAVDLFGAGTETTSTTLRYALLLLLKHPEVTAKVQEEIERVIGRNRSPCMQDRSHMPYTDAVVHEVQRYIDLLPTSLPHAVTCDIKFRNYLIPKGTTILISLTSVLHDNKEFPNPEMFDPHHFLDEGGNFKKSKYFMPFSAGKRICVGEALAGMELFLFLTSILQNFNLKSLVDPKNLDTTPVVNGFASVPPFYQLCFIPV
Assay: blockers of cytochrome P450 2C9 activity – biochemical, luminescence, ADME assay, primary screen (AID 777)
Conditions: CYP2C9 Supersomes, luciferin-H conversion, at 5 µM, active compounds read high
The campaign covered roughly 96,000 compounds. About 19,000 (20%) were called active. A selection follows.
Value Kind: inhibition (%)

Compound	Reported Value
CN(C(=O)CSc1nc(C2CC2)nc2ccccc12)c1nc(-c2ccccc2)cs1	39.9
CC(=O)N1CCN(c2cccc(C)c2C)CC1	-8.6
CC(C)(C)c1cc2cccnc2n1Cc1cccc(F)c1	6.5
Cc1cccc(N2CCN(C(=O)C3CCN(S(=O)(=O)c4cnc[nH]4)CC3)CC2)c1C	30.4
Cc1ccc(NC(=O)CN(C)S(=O)(=O)c2cnc[nH]2)cc1C	93.7
O=C(CSCc1cccs1)N1CCCC1	-22.8
COCCn1nnnc1C(c1ccccc1Cl)N1CCN(c2ccccc2OC)CC1 (stereo unspecified)	39.5
CCOC(=O)Cc1csc(NC(=O)C(C)(C)C)n1	30.2
c1ccc(-c2cn3cccnc3n2)cc1	-1.3
CCCCN(CC)C(=O)CN(C)S(=O)(=O)c1cccc2nsnc12	16.6
CS(=O)(=O)c1ccc2nc(NC(=O)C3CCCCC3)sc2c1	7.3
C#CCNc1nc(C(C)C)nc2c1nnn2Cc1ccccc1F	40.2
O=C(COc1ccc(Cl)cc1)N1CCN(c2cccc(C(F)(F)F)c2)CC1	13.6
O=C(c1cccs1)N1CCN(C(=O)N2CCOCC2)CC1	-2
COC(=O)c1ccc(CSc2nncn2C)cc1	21.6
Cc1ccc(S(=O)(=O)N(C)CC(=O)N2CCc3ccccc32)cc1	-132
CCCS(=O)(=O)N1CCC(C(=O)NCCCN(C)Cc2ccccc2)CC1	20.7
CCOC(=O)N1CCN(C(c2cccnc2)c2ccc3cccnc3c2O)CC1 (stereo unspecified)	32.6
CCN(CC)CCn1c(=S)[nH]c2ncccc2c1=O	16.3
CN(NC(=O)c1ccccc1)c1nc2ccccc2nc1C(F)(F)F	15.5
Cc1nc(Nc2ccc3c(c2)OCCO3)c2nnn(Cc3ccccc3Cl)c2n1	93.2
CCOC(=O)Cc1csc(NC(=O)CN(C)S(=O)(=O)c2ccc3c(c2)CCC(=O)N3)n1	65.5
Cc1nn(-c2ncc(C(F)(F)F)cc2Cl)c(=O)n1-c1ccccc1	-45.3
COc1cc(C2C(C(=O)c3ccc(C)o3)=C(O)C(=O)N2Cc2cccnc2)ccc1O (stereo unspecified)	19.4
O=C(NCc1ccccn1)c1cnc2sccn2c1=O	-4
CC(C)(C)c1nc(NCC2CCCO2)c2nnn(Cc3ccccc3)c2n1 (stereo unspecified)	32.7
COc1cccc(-c2nnc(N(C)C(=O)c3ccno3)s2)c1	2.4
CCOC(=O)/C=c1\s/c(=C\c2ccccc2OC)c(=O)n1CC(=O)N1CCOCC1	2
CC(=O)NS(=O)(=O)c1ccccc1	0.2
CC(C)Cn1c(CN(Cc2ccccc2)Cc2ccccc2)nc2c1c(=O)n(C)c(=O)n2C	72.2
S=c1nccc(-c2cc(Cl)sc2Cl)[nH]1	-6.6
O=C(CN1CCSCC1)N/N=C/c1ccc(F)cc1	17.1
COCCCn1c(CCC(=O)O)ccc1-c1ccc(F)cc1	39.8
COC(=O)c1cnn2c(C(F)(F)F)cc(-c3ccco3)nc12	-10.8
COc1ccc2c(c1OC)C(=O)OC2c1c(O)nc(SC)n(-c2ccccc2)c1=O (stereo unspecified)	-12.4
CN(C(=O)CC(NC(=O)c1ccccc1)(c1ccccc1)c1ccccc1)c1ccccc1	21.9
COc1ccc(N2CCN(C(=O)CSc3nnc4ncccn34)CC2)cc1	18.5
O=C(CCC(=O)OCc1cccc(C(=O)Oc2ccccc2)c1)Nc1cccc2ccccc12	95.5
NC(=O)c1nsc(C(=O)N(CC(=O)NCc2ccc(F)cc2)Cc2ccco2)c1N	20.6
N#C/C(=C1/CCCN1)c1ccccn1	7.3
O=C(CCC(=O)OCC(F)(F)C(F)F)NCc1ccccc1	4.8
O=C(c1cccs1)N1CCC(c2nc3ccccc3s2)CC1	60.9
c1ccc(CCn2nnnc2CN2CCN(C3CCCC3)CC2)cc1	-1.3
CCn1c(O)c2ccc(C(=O)N=NC(=O)c3cccnc3)cc2c1O	-3.1
CC(=O)Nc1ccc(NC(=O)c2sc3nc4c(c(-c5ccc(C)cc5)c3c2N)CCC4)cc1	-4.6
COc1cc(C2C(C(=O)c3ccc(C)o3)=C(O)C(=O)N2CCc2ccccc2)ccc1O (stereo unspecified)	5.2

meta.source: PubChem BioAssay AID777
